# Experiment notes: clinical
# Run conditions: human, in vivo, iv, Vdss
For each of the molecules below, state its Vd.
Respond with the bare value in L/kg.

Q. Return Vd for the following molecule: C#C[C@]1(O)C=C[C@H]2[C@@H]3CCC4=CC(=O)CC[C@@H]4[C@H]3CC[C@@]21CC [GESTODENE]
A. 0.46

Q. Supply Vd value. Item: CCC(CC)COC(C(=O)OCCN(C)C)(c1ccccc1)c1ccccc1 [DENAVERINE]
A. 7.1

Q. Look up Vd of CC[C@H](C)C[C@H](C)CCCCCCCCC(=O)N[C@H]1C[C@@H](O)[C@@H](NCCN)NC(=O)[C@@H]2[C@@H](O)CCN2C(=O)[C@H]([C@H](O)CCN)NC(=O)[C@H]([C@H](O)[C@@H](O)c2ccc(O)cc2)NC(=O)[C@@H]2C[C@@H](O)CN2C(=O)[C@H]([C@@H](C)O)NC1=O [CASPOFUNGIN] and report it.
A. 0.13

Q. Give the reported Vd for this molecule. CCCCCN(CCCOC)C(=O)C(CCC(=O)O)NC(=O)c1ccc(Cl)c(Cl)c1 (centres undefined) [LOXIGLUMIDE]
A. 0.24

Q. Provide Vd value for the following molecule: N=C(N)c1ccc(CNC(=O)[C@@H]2CCN2C(=O)[C@H](NCC(=O)O)C2CCCCC2)cc1
A. 0.23

Q. Provide measured Vd value, entry: CC(C)(C)NC(=O)[C@@H]1CN(Cc2cccnc2)CCN1C[C@@H](O)C[C@@H](Cc1ccccc1)C(=O)N[C@H]1c2ccccc2C[C@H]1O.O
A. 0.82

Q. Provide Vd value for the following molecule: NC(=O)NO [HYDROXYUREA]
A. 0.52

Q. Give Vd for Cc1c(OCC(F)(F)F)ccnc1C[S+]([O-])c1nc2ccccc2[nH]1 (centres undefined) [LANSOPRAZOLE]
A. 0.28

Q. # return recorded Vd for entry Cc1nnc2n1-c1sc(Br)cc1C(c1ccccc1Cl)=NC2 [BROTIZOLAM]
A. 0.75
